- protocol description: MALDI quantitative MSI (on-tissue qMSI) of rotenone in kidney tissue sections after a single oral dose
- Type: in vivo
- reported conditions: rat, kidney, po, 2 mg/kg, single oral 2 mg/kg, AVERAGE ± SD of 7 kidney tissue sections, read-out: Concentration
observed property: concentration at 24 h (ng/mL)
Answers are plain numbers, in ng/mL.

Fill in the blank: the reported concentration at 24 h of C=C(C)[C@H]1Cc2c(ccc3c2O[C@@H]2COc4cc(OC)c(OC)cc4[C@@H]2C3=O)O1 [rotenone, Rotenone] is ____. 6200

###

- protocol description: MALDI quantitative MSI (on-tissue qMSI) of rotenone in kidney tissue sections after a single oral dose
- Type: in vivo
- reported conditions: rat, kidney, po, 2 mg/kg, single oral 2 mg/kg, Kidney Tissue 6 (layer 6), read-out: Relative concentration per tissue section
- Method: Rats were sacrificed 24 h after drug administration, and the kidney and liver organs were immediately removed, flash-frozen with liquid nitrogen, and stored at −80°C in a freezer for long-term storage. […] This method utilized an untreated kidney tissue sample which was sectioned and mounted on a clean glass slide. […] The limits of detection (LOD) and quantification (LOQ) were calculated by averaging the calibration curves, using signal-to-noise ratios (S/N) of 3:1 for LOD and 10:1 for LOQ. […]
observed property: concentration at 24 h (ng/g)
One number for each entry, in ng/g.

Fill in the blank: the reported concentration at 24 h of C=C(C)[C@H]1Cc2c(ccc3c2O[C@@H]2COc4cc(OC)c(OC)cc4[C@@H]2C3=O)O1 [rotenone, Rotenone] is ____. 9210

###

- protocol description: MALDI quantitative MSI (on-tissue qMSI) of rotenone in kidney tissue sections after a single oral dose
- Assay type: in vivo
- reported conditions: rat, kidney, po, 2 mg/kg, single oral 2 mg/kg, Kidney Tissue 4 (layer 4), read-out: Relative concentration per tissue section
observed property: concentration at 24 h (ng/g)
Answers are plain numbers, in ng/g.

Fill in the blank: the reported concentration at 24 h of C=C(C)[C@H]1Cc2c(ccc3c2O[C@@H]2COc4cc(OC)c(OC)cc4[C@@H]2C3=O)O1 is ____. 5950

###

- protocol description: MALDI quantitative MSI (on-tissue qMSI) of rotenone in kidney tissue sections after a single oral dose
- Assay type: in vivo
- reported conditions: rat, kidney, po, 2 mg/kg, single oral 2 mg/kg, Kidney Tissue 1 (layer 1), read-out: Concentration
observed property: concentration at 24 h (µg/mL)
Answers are plain numbers, in µg/mL.

Fill in the blank: the reported concentration at 24 h of C=C(C)[C@H]1Cc2c(ccc3c2O[C@@H]2COc4cc(OC)c(OC)cc4[C@@H]2C3=O)O1 is ____. 3.6

###

- protocol description: MALDI quantitative MSI (on-tissue qMSI) of rotenone in kidney tissue sections after a single oral dose
- Type: in vivo
- reported conditions: rat, kidney, po, 2 mg/kg, single oral 2 mg/kg, Kidney Tissue 4 (layer 4), read-out: Concentration
- Experimental: Rats were sacrificed 24 h after drug administration, and the kidney and liver organs were immediately removed, flash-frozen with liquid nitrogen, and stored at −80°C in a freezer for long-term storage. […] This method utilized an untreated kidney tissue sample which was sectioned and mounted on a clean glass slide. […] The limits of detection (LOD) and quantification (LOQ) were calculated by averaging the calibration curves, using signal-to-noise ratios (S/N) of 3:1 for LOD and 10:1 for LOQ. […]
observed property: concentration at 24 h (ng/mL)
Answers are plain numbers, in ng/mL.

Fill in the blank: the reported concentration at 24 h of C=C(C)[C@H]1Cc2c(ccc3c2O[C@@H]2COc4cc(OC)c(OC)cc4[C@@H]2C3=O)O1 is ____. 7200

The values you see were collected from paper PMC11246995.
